Test system: HT-29
experimental-protocol: Cytotoxicity against human HT29 cells
Type: functional, cell-based
measured-metric: log10(IC50) (log10 of the value in µg/mL)

smiles_code=CCCCCCCCCCCCCC[C@@H](O)[C@H]1CC[C@H]([C@H]2CC[C@@H](CCCCC[C@@H](O)CC3=C[C@H](C)OC3=O)OCO2)O1 measured_metric=log10(IC50) assay_result=0.05
smiles_code=COc1cccc2c1C(=O)c1c(O)c3c(c(O)c1C2=O)C[C@@](O)(C(=O)CO)C[C@@H]3O[C@H]1C[C@H](N)[C@H](O)[C@H](C)O1 measured_metric=log10(IC50) assay_result=-3.29
smiles_code=CCCCCCCCCCCC[C@@H](O)[C@H]1CC[C@H]([C@H]2CC[C@@H](CCCCCCC[C@@H](O)CC3=C[C@H](C)OC3=O)OCO2)O1 measured_metric=log10(IC50) assay_result=0.75
smiles_code=CCCCCCCCCCCCCC[C@H](O)[C@@H]1CC[C@H]([C@H]2CC[C@@H](CCCCC[C@@H](O)CC3=C[C@H](C)OC3=O)OCO2)O1 measured_metric=log10(IC50) assay_result=0.41
smiles_code=CCCCCCCCCCCCCC[C@@H](O)[C@H]1CC[C@H]([C@H](O)CC[C@H](O)CCCCC[C@@H](O)CC2=C[C@H](C)OC2=O)O1 measured_metric=log10(IC50) assay_result=-2.96

###

System: MCF7
experimental-protocol: Cytotoxicity against human MCF7 cells
Assay type: functional, cell-based
measured-metric: IC50 (µg/mL)

smiles_code=CCCCCCCCCCCC[C@@H]1OCO[C@H](CCC[C@H](O)CCCCC[C@@H](O)CC2=C[C@H](C)OC2=O)[C@@H]2CC[C@@H]1O2 measured_metric=IC50 reading_unit=µg/mL assay_result=2.6
smiles_code=CCCCCCCCCCCC[C@@H](O)[C@H]1CC[C@H]([C@H]2CC[C@H](CCCCCCC[C@@H](O)CC3=C[C@H](C)OC3=O)OCO2)O1 measured_metric=IC50 reading_unit=µg/mL assay_result=8.5
smiles_code=CCCCCCCCCCCCCC[C@H](O)[C@@H]1CC[C@H]([C@H]2CC[C@@H](CCCCC[C@@H](O)CC3=C[C@H](C)OC3=O)OCO2)O1 measured_metric=IC50 reading_unit=µg/mL assay_result=0.52
smiles_code=CCCCCCCCCCCCCC[C@H](O)[C@@H]1CC[C@H]([C@H](O)CC[C@H](O)CCCCC[C@@H](O)CC2=C[C@H](C)OC2=O)O1 measured_metric=IC50 reading_unit=µg/mL assay_result=1.05
smiles_code=CCCCCCCCCCCC[C@@H](O)[C@H]1CC[C@H]([C@H](O)CC[C@@H](O)CCCCCCC[C@@H](O)CC2=C[C@H](C)OC2=O)O1 measured_metric=IC50 reading_unit=µg/mL assay_result=0.4
smiles_code=CCCCCCCCCCCC[C@H](O)[C@@H]1CC[C@H]([C@H](O)CCCCC(=O)CCCCC[C@@H](O)CC2=C[C@H](C)OC2=O)O1 measured_metric=IC50 reading_unit=µg/mL assay_result=0.29
smiles_code=CCCCCCCCCCCC[C@H](O)[C@@H]1CC[C@H]([C@H](O)CCCC[C@H](O)CCCCC[C@@H](O)CC2=C[C@H](C)OC2=O)O1 measured_metric=IC50 reading_unit=µg/mL assay_result=1.18
smiles_code=CCCCCCCCCCCCCC[C@@H](O)[C@H]1CC[C@H]([C@H](O)CC[C@H](O)CCCCC[C@@H](O)CC2=C[C@H](C)OC2=O)O1 measured_metric=IC50 reading_unit=µg/mL assay_result=0.057
smiles_code=CCCCCCCCCCCC[C@@H](O)[C@H]1CC[C@H]([C@H]2CC[C@@H](CCCCCCC[C@@H](O)CC3=C[C@H](C)OC3=O)OCO2)O1 measured_metric=IC50 reading_unit=µg/mL assay_result=2.9
smiles_code=CCCCCCCCCCCCCC[C@@H](O)[C@H]1CC[C@H]([C@H]2CC[C@@H](CCCCC[C@@H](O)CC3=C[C@H](C)OC3=O)OCO2)O1 measured_metric=IC50 reading_unit=µg/mL assay_result=1.03
smiles_code=CCCCCCCCCCCC[C@@H](O)[C@H]1CC[C@H]([C@H](O)CC[C@H](O)CCCCCCC[C@@H](O)CC2=C[C@H](C)OC2=O)O1 measured_metric=IC50 reading_unit=µg/mL assay_result=0.23
